Target: Tyrosine-protein phosphatase non-receptor type 1 (Homo sapiens, UniProt P18031)
Sequence (P18031 whole entry): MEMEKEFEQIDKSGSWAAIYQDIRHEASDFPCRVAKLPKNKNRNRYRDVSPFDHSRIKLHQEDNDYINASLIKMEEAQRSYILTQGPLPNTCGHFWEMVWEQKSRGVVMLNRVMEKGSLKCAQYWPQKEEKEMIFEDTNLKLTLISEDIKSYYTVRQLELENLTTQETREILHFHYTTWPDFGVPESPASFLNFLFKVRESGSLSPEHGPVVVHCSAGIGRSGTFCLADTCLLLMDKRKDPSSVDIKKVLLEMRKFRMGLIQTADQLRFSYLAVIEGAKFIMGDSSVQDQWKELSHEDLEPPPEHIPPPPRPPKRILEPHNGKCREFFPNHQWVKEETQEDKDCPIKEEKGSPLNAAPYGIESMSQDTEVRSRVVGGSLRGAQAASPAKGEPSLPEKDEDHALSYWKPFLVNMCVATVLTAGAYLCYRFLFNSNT
Record set: IC50 | Tyrosine-protein phosphatase non-receptor type 1 (Homo sapiens, UniProt P18031) | literature, multiple sources.
Report the figure in µM without appending any unit label.

molecule: O=C(Nc1ccc(-c2ccc(NC(=O)c3ccco3)cn2)cc1)c1ccco1
IC50 (µM): 11.1
//
molecule: CC1(C)CC[C@]2(C(=O)O)CC[C@]3(C)C(=CC[C@@H]4[C@@]5(C)CC[C@H](OCc6ccc(C(=O)O)cc6)C(C)(C)[C@@H]5CC[C@]43C)[C@@H]2C1
IC50 (µM): 0.54
//
molecule: O=C(O)c1cc(-c2ccc(/C=C3\NC(=O)N(c4ccccc4)C3=O)o2)ccc1Cl
IC50 (µM): 34
//
molecule: NS(=O)(=O)C(F)(F)c1cc2cc(CN(Cc3ccc(-c4csnn4)cc3)S(=O)(=O)c3ccc(OCC(=O)O)cc3)ccc2cc1F
IC50 (µM): 0.035
//
molecule: CN(C)c1ccc(-c2nc(-c3ccc4oc5c(C(=O)O)cccc5c4c3)cs2)cc1
IC50 (µM): 0.257
//
molecule: O=C(O)c1ccc(NC(=O)c2csc([C@H](Cc3ccc(OCc4ccccc4)cc3)NC(=O)C3CCCCC3)n2)cc1
IC50 (µM): 4.88

For this molecule ( `CCCCCc1c2c(cc(O)c1C(=O)OC)OC(=O)c1c(cc(OC)cc1C(=O)CCCC)O2` ), measured IC50 is 3.02

For this molecule ( `O=C(O)c1cc(-c2ccccc2)cc(Cc2ccccc2)c1O` ), measured IC50 is 57

For this molecule ( CCOP(=O)(O)C(N[C@@H](Cc1cnc[nH]1)C(=O)O)c1ccccc1O (some centres not stated) ), measured IC50 is 334

For this molecule ( `C=CCCCC(=O)N1Cc2cc(OCCc3nc(/C=C/CCC(C)C)oc3C)ccc2C[C@H]1C(=O)O.CC(C)(C)N` ), measured IC50 is 1.43

For this molecule ( `O=C(O)c1ccc(CN2C(=O)/C(=C/c3ccc(O)c(C(=O)O)c3)S/C2=N\c2ccccc2)cc1` ), measured IC50 is 19.5
